Measured 100 nM Ag Bound (RU), listed per entry.
Target: T1, human NPR1 extracellular domain expressed with a C-terminal mouse IgG2a (hNPR1-mFc) (human)
T1 construct: also called hNPR1-Fc; human NPR1 dimer
T1 chain: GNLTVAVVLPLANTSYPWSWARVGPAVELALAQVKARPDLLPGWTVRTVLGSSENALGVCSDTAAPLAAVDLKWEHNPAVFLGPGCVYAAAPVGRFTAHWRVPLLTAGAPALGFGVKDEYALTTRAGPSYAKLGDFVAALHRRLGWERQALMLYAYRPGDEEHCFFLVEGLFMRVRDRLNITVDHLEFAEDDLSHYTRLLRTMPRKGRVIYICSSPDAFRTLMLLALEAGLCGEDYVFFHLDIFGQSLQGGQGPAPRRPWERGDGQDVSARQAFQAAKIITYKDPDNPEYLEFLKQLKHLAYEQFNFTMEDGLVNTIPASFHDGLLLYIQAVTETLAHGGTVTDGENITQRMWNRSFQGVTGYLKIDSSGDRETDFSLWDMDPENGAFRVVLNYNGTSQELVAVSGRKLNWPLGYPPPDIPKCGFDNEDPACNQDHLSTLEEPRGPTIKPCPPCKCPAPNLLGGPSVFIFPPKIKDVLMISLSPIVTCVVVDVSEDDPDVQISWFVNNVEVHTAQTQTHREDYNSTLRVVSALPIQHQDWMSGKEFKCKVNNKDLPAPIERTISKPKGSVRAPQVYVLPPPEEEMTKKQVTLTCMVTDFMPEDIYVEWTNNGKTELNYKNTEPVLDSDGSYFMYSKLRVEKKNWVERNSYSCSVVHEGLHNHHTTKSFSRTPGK
Assay: SPR, mAb captured, 25 C
Record the value in RU, omitting the unit from your answer.

A selection of reference data follows.
binder	100 nM Ag Bound (RU)
mAb25491 (antibody, V domains shown) VH: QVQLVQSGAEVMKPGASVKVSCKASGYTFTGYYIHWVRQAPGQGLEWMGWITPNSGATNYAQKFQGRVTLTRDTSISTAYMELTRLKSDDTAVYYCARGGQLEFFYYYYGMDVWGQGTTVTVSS VL: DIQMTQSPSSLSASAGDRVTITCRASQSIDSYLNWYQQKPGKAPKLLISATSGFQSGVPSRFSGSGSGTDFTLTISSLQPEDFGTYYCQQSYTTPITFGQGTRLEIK	36
mAb22810 (antibody, V domains shown) VH: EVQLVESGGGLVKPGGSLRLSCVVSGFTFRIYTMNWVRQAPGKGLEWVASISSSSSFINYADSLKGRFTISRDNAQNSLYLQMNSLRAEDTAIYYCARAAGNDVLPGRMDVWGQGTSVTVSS VL: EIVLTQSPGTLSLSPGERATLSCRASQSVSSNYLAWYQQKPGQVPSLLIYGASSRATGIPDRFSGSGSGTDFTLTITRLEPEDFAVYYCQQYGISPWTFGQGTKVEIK	4
mAb25508 (antibody, V domains shown) VH: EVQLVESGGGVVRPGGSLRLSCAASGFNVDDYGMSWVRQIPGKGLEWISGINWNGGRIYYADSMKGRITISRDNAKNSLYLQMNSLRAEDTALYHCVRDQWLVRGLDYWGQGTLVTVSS VL: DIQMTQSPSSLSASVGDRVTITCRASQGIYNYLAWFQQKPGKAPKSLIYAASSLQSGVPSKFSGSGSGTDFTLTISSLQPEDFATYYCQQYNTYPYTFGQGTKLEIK	211

# evaluate next
The binder identified as mAb22035 (antibody, V domains shown) VH: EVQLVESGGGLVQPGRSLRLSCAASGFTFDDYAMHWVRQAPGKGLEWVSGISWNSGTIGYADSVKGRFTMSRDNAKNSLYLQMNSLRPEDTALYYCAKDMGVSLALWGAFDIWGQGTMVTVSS VL: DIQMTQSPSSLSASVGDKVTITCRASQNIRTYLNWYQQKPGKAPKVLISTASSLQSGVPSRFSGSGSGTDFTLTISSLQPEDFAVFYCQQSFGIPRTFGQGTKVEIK registered its 100 nM Ag Bound (RU) at 198
